tested-target: calf thymus R1 (calf)
Square brackets hold non-standard residues; d marks the D form. Ends that are not written are not given here. Phe(4-NH2) = Nc1ccc(C[C@H](N)C(=O)O)cc1
experimental-readout: Percent RI (percent relative inhibitory potency), mammalian RR activity

binder	result
Ac-FTLAADF [Ac-(FTLAADF)]	2.9%
Ac-LTLDADF [Ac-(LTLDADF)]	< 3%
Ac-FTLDADF [Ac-(FTLDADF)]	100%
FTLDADF	< 3%
Ac-FTLDADL [Ac-(FTLDADL)]	< 3%
Ac-LDADF [Ac-(LDADF)]	< 3%
Ac-[Phe(4-NH2)]TLDADF [Ac-(F(4'-NH2)TLDADF)]	10%
Ac-FTLNADF [Ac-(FTLNADF)]	40%
